Entries and their GLP1 secretion stimulation values follow.
assay: glucagon-like peptide 1 release enhancers, primary assay, NCI-H716 cell line, NPC library (AID 1117341); settings: NCI-H716 cells, at 10 µM, stronger effect = higher value; note: reference of the scale not given here
The answer is to be given in %; state only the numeric part.

Below are worked cases with known answers.
CC1(CN2CCC(n3c(=O)[nH]c4ccccc43)CC2)OCc2ccccc2-n2cccc21 (centres undefined) = 3.3
O=C(OCc1ccccc1)c1cccnc1 = -1.9

-- ask Entry under review: `C#CCN(C)CCCOc1ccc(Cl)cc1Cl` . Reported GLP1 secretion stimulation?
-- reply -0.5

-- ask Look up GLP1 secretion stimulation for this compound: C=CC(C)(O)CCC=C(C)CCC=C(C)C (centres undefined)
-- reply 9.7

-- ask // query GLP1 secretion stimulation value for entry O=C1OC(OC(=O)c2cccnc2Nc2cccc(C(F)(F)F)c2)c2ccccc21 (centres undefined)
-- reply 1.3

-- ask What value of GLP1 secretion stimulation has been reported for the following compound? `Cc1c(N)c(=O)n(-c2ccccc2)n1C`
-- reply 1.1

-- ask Can you share its GLP1 secretion stimulation? I mean this compound: `CCC(=O)c1ccc(O)cc1`
-- reply -2.3

-- ask Give its GLP1 secretion stimulation value. Item: `O=C(O)CCCCC(=O)O`
-- reply 1.4

---

tested on: Hepatitis C virus NS3 helicase; assay: HCV NS3 helicase inhibitors, primary screen, biochemical, fluorescence polarization, LOPAC1280 library (AID 687035); details: Purified HCV NS3 helicase, Cy5-dT15 ssDNA binding fluorescence polarization; stronger effect = higher value; concentration not given here
endpoint.name: inhibition (%)
The response must be a number in % with no trailing unit.

Below, each entry is followed by its recorded inhibition result.
O=C1OC(=O)C2C3CCC(O3)C12 (stereo unspecified) = -2
NC(N)=NCCCCN=C(N)N = -3
CC(=O)[C@H]1CC[C@H]2[C@@H]3CCC4=CC(=O)CC[C@]4(C)[C@H]3CC[C@]12C = -4

-- ask Form field: reported inhibition of CC(C)NCC(O)COc1cccc2ccccc12 (stereo unspecified)
-- reply -4

-- ask # get_value(readout='inhibition', item= `CCn1nc(C(=O)O)c(=O)c2cc3c(cc21)OCO3` )
-- reply -4

-- ask GET /values?readout=inhibition&item= `CN[C@H](CC(=O)O)C(=O)O`
-- reply -2

-- ask What measured inhibition goes with OC(CN1CCN(c2cccc(Cl)c2)CC1)C(c1ccccc1)c1ccccc1 (stereo unspecified) ?
-- reply -4

-- ask Fill blank: measured inhibition of the compound `COc1ccc2c(c1OC)C(=O)O[C@@H]2[C@H]1c2c(cc3c(c2OC)OCO3)CCN1C` is ____.
-- reply -2

-- ask Which inhibition reading was recorded for the compound `NC(=O)CC[C@H](N)C(=O)O` ?
-- reply -3

-- ask Looking for the measured inhibition of `N[C@@H](Cc1c[nH]c2ccccc12)C(=O)O` , can you help?
-- reply 2

-- ask // inhibition lookup, key: `Cn1c(=O)c2[nH]c(C3CCCC3)nc2n(C)c1=O`
-- reply -1

---

assay: MDA-MB-436 breast carcinoma cell growth inhibition, synergistic combos for chromothripsis tumors, BGB or cisplatin combos (AID 1671458); conditions: MDA-MB-436 breast carcinoma growth inhibition, drug combinations; measured here: BGB combination; at 5 µM; stronger effect = higher value;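 note: cells exposed for 96 hours; 0% = vehicle DMSO and 100% = killing by high DMSO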
Measured inhibition, listed per entry.
Return type: number; implicit unit %.

Would you please look over these solved cases?
Nc1ncn([C@H]2C[C@H](O)[C@@H](CO)O2)c(=O)n1 = 26.2
CNC1CCCN(c2c(F)cc3c(=O)c(C(=O)O)cn(C4CC4)c3c2OC)C1 (stereo unspecified) = -19.5
COc1c2ccoc2cc2oc(=O)ccc12 = -18.9
COC1C(OC(N)=O)C(O)C(Oc2ccc3c(O)c(NC(=O)c4ccc(O)c(CC=C(C)C)c4)c(=O)oc3c2C)OC1(C)C (stereo unspecified) = -32.4
CCn1nc(C(=O)O)c(=O)c2cc3c(cc21)OCO3 = -16.6

As a next step, examine the compound that follows.
-- ask // inhibition lookup, key: CC1(C(=O)O)CCC2(C)CCC3(C)C(=CC(=O)C4C5(C)CCC(OC(=O)CCC(=O)O)C(C)(C)C5CCC43C)C2C1 (stereo unspecified)
-- reply -30.2

---

Catalogue of compounds with associated inhibition
target: 6-phosphogluconate dehydrogenase, decarboxylating (Homo sapiens) (UniProt P52209); assay: 6PGD enzyme inhibitors, primary screen, biochemical, human, recombinant enzyme, NADPH absorbance (AID 1159550); conditions: recombinant 6PGD, NADPH absorbance 341 nm; at 10 µM; stronger effect = higher value
Sequence (P52209 whole entry, looked up): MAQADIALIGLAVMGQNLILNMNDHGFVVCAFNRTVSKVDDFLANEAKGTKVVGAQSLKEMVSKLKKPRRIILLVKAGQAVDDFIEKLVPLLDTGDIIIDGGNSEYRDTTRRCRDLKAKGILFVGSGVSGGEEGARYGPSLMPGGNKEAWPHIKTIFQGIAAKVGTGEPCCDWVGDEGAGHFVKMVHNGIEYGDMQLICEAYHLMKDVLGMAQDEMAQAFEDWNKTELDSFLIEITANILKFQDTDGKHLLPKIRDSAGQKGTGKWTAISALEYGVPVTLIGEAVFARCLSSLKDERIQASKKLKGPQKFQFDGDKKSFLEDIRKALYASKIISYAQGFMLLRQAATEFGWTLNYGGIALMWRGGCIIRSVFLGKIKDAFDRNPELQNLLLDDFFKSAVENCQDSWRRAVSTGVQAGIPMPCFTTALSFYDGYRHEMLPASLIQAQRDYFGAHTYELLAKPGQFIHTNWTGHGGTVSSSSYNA
Answer with a number only, understood to be in %.

Past entries and their recorded results:
CC(CCC(=O)O)C1CCC2C3CCC4CCCCC4(C)C3CCC12C (centres undefined) = 14
COc1cc(Cc2cnc(N)nc2N)cc(OC)c1OC = -0.293
CC(C)(S)[C@@H](N)C(=O)O = 5.83
N[C@@H](Cc1cc(I)c(Oc2ccc(O)c(I)c2)c(I)c1)C(=O)O = 0.697
COc1cc(C(C)=O)cc(OC)c1O = -40.3
COc1ccc(-c2cc(=O)c3c(OC(C)=O)cc(OC(C)=O)cc3o2)cc1 = -1.6

-- ask Look up inhibition for this compound: `COc1ccc2ccc(=O)oc2c1`
-- reply 6.96

-- ask GET /values?readout=inhibition&item= CC(=O)O[C@H]1CC[C@]2(C)C(C[C@H](OC(C)=O)[C@]3(C)C4=CC(=O)O[C@H](c5ccoc5)[C@@]4(C)CCC23)C1(C)C (some centres undefined)
-- reply -15.5

-- ask I would be grateful if you could share the reported inhibition for `CC[C@H]1OC(=O)[C@H](C)[C@@H](O[C@H]2C[C@@](C)(OC)[C@@H](O)[C@H](C)O2)[C@H](C)[C@@H](O[C@@H]2O[C@H](C)C[C@H](N(C)C)[C@H]2O)[C@](C)(OC)C[C@@H](C)C(=O)[C@H](C)[C@@H](O)[C@]1(C)O` .
-- reply 2.59

---

// reported viability for each item listed
assay: liver-stage malaria parasite growth inhibition, primary screen, cell-based, HepG2, luciferase luminescence, HepG2 viability (AID 624349);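 note: 100% = mean of DMSO negative control wells on the same plate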; settings: P. berghei liver stage in HepG2, luciferase luminescence, concentration not given here; measured here: HepG2 viability without parasites
Quick note: give the figure in %, leave out the unit.

// worked examples, viability included
NCCC(O)(P(=O)(O)O)P(=O)(O)O = 75
O=c1c(-c2ccc(O)cc2)coc2cc(O)ccc12 = 94.2
C#Cc1cccc(Nc2ncnc3cc(OCCOC)c(OCCOC)cc23)c1 = 168
NCC(O)CC(=O)O (stereo not drawn) = 91.4
NS(=O)(=O)c1cc(C(=O)O)cc(N2CCCC2)c1Oc1ccccc1 = 80.6
NC1(C(=O)O)CCCC1 = 69.9

# context switch: different compound, same viability
-- ask May I ask what viability has been recorded for `CC[C@@]1(O)C[C@H](O[C@H]2C[C@H](N(C)C)[C@H](O[C@H]3C[C@H](O)[C@H](O[C@H]4CCC(=O)[C@H](C)O4)[C@H](C)O3)[C@H](C)O2)c2c(cc3c(c2O)C(=O)c2c(O)cccc2C3=O)[C@H]1C(=O)OC` ?
-- reply 14.5

---

Each item that follows carries a reported inhibition.
assay: MDA-MB-436 breast carcinoma cell growth inhibition, synergistic combos for chromothripsis tumors, BGB or cisplatin combos (AID 1671458); conditions: MDA-MB-436 breast carcinoma growth inhibition, drug combinations; measured here: BGB combination; at 0.5 µM; stronger effect = higher value;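 note: cells exposed for 96 hours; 0% = vehicle DMSO and 100% = killing by high DMSO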
Report as a plain number; the unit % is understood.

CNC1CCCN(c2c(F)cc3c(=O)c(C(=O)O)cn(C4CC4)c3c2OC)C1 (stereo not given) = -19.9
O=C(CCCCCCC(=O)Nc1ccccc1)NO = -38.5
CCn1nc(C(=O)O)c(=O)c2cc3c(cc21)OCO3 = -3.35
COc1c2ccoc2cc2oc(=O)ccc12 = -22.9
CCOC(=O)Nc1ccc(NCc2ccc(F)cc2)nc1N = -4.35

-- ask Could you share which inhibition value was measured for CC1(C(=O)O)CCC2(C)CCC3(C)C(=CC(=O)C4C5(C)CCC(OC(=O)CCC(=O)O)C(C)(C)C5CCC43C)C2C1 (stereo not given) ?
-- reply -21

-- ask // lookup inhibition for `CN1C[C@@H]2C[C@H]1CN2c1cc2c(cc1F)c(=O)c(C(=O)O)cn2C1CC1`
-- reply 1.19

-- ask Return reported inhibition; argument: COC1C(OC(N)=O)C(O)C(Oc2ccc3c(O)c(NC(=O)c4ccc(O)c(CC=C(C)C)c4)c(=O)oc3c2C)OC1(C)C (stereo not given)
-- reply -38.4

-- ask Form field: reported inhibition of `CN1CCN(c2c(F)cc3c(=O)c(C(=O)O)cn4c3c2OCN4C)CC1`
-- reply -13.3

-- ask I am curious: what inhibition value has been reported for `N=C(N=C(N)N)N1CCOCC1` ?
-- reply -4.36
